B1: library; numbered along this chain (parent)
chain: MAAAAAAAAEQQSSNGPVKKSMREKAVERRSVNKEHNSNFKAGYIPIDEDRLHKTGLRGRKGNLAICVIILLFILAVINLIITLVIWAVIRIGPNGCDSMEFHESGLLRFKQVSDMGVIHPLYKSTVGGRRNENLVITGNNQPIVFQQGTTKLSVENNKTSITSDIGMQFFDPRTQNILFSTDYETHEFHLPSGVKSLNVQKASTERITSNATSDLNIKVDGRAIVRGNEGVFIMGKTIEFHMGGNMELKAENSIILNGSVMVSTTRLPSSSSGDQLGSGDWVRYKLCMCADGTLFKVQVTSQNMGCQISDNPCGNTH

Variants of: B1
Experiment: SGCB cell-surface expression functional score (HA stain, bin4 vs bin1, normalised to synonymous) (log10 ratio); higher = more cell-surface SGCB (functional)
assayReadout: SGCB cell-surface expression functional score (log10)

Completed entries (count: 3):
A3F	0.22
N211E	0.12
W282V	0.04

For the variant `L268Y` , give its reported SGCB cell-surface expression functional score (log10).
-0.02

For the variant `F102N` , give its reported SGCB cell-surface expression functional score (log10).
-1.53
